Listing: T/C of selected molecules
Test system: P388 leukemia ip, CD2F1 mice, survival T/C
METHOD DESCRIPTION: NCI In Vivo Anticancer Drug Screen. Data for tumor model P388 Leukemia (intraperitoneal) in CD2F1 (CDF1) mice
CONDITION DETAILS: endpoint: median survival time; dose: 200.0 mg/kg/injection; schedule: Q01DX009 (ip); vehicle: saline; higher = longer survival
Toxic doses and inconclusive results are not listed.

The cases that follow already have their T/C on record.
MOLECULE	MEASURED METRIC	EXPERIMENTAL RESULT
COCC(O)COC	T/C	87 % of control
CCC[CH2][Sn]([CH2]CCC)([CH2]CCC)[CH2]CC[N+](C)(CCO)CCO.CS(=O)(=O)[O-]	T/C	98 % of control
CCOC(=O)C(C)(NC(=O)CN)C1CC1 (configuration not stated)	T/C	97 % of control
Nc1cc(=O)nc2cn[nH]n12	T/C	90 % of control

Hi! What's the reported T/C for S=P(C1CCCCC1)(C1CCCCC1)C(c1cccnc1)N1CCCC1 (configuration not stated) on P388 leukemia ip, CD2F1 mice, survival T/C? 87 % of control

Do the same for O=C1Cc2ccccc2N1 please 105 % of control

Do the same for C[Si](C)(C)O/C=C1/CCOC1=O please 120 % of control

* * *

Tested on: P388 leukemia ip, CD2F1 mice, survival T/C
METHOD DESCRIPTION: NCI In Vivo Anticancer Drug Screen. Data for tumor model P388 Leukemia (intraperitoneal) in CD2F1 (CDF1) mice
CONDITION DETAILS: endpoint: median survival time; dose: 200.0 mg/kg/injection; schedule: Q04DX003 (ip); vehicle: saline with Tween-80; higher = longer survival
Inconclusive results and toxic doses are left out.
MEASURED METRIC: T/C

The cases that follow already have their T/C on record.
COMPOUND	STUDY TARGET	T/C
C=C(C)CC1(CC)C(=O)NC(=S)NC1=O	P388 leukemia ip, CD2F1 mice, survival T/C	86 % of control
CCOC(=O)CN=CC1CCC=CO1 (centres undefined)	P388 leukemia ip, CD2F1 mice, survival T/C	100 % of control
Cc1c2cnccc2c(C)c2c1c1ccccc1n2CCOC(=O)c1ccccc1	P388 leukemia ip, CD2F1 mice, survival T/C	86 % of control
COc1ccc(Br)cc1/C=N/N=C/c1cc(Br)ccc1OC	P388 leukemia ip, CD2F1 mice, survival T/C	86 % of control
CCOC(=O)c1nc2cc(C)c(C)cc2[nH]c1=O	P388 leukemia ip, CD2F1 mice, survival T/C	100 % of control
CCc1c(CC(=O)O)c2cc(C)ccc2n1Cc1ccc(Cl)cc1	P388 leukemia ip, CD2F1 mice, survival T/C	90 % of control
Cc1ccc(CNc2cccnc2)cc1	P388 leukemia ip, CD2F1 mice, survival T/C	95 % of control
S=c1sc2ccccc2n1CCNc1ccccc1	P388 leukemia ip, CD2F1 mice, survival T/C	95 % of control

# query: T/C of entry Br/C(C=Nc1ccccc1)=C\Nc1ccccc1 109 % of control

* * *

System: P388 leukemia ip, CD2F1 mice, survival T/C
METHOD DESCRIPTION: NCI In Vivo Anticancer Drug Screen. Data for tumor model P388 Leukemia (intraperitoneal) in CD2F1 (CDF1) mice
CONDITION DETAILS: endpoint: median survival time; dose: 100.0 mg/kg/injection; schedule: Q01DX005 (ip); vehicle: saline with Tween-80; higher = longer survival
Toxic doses and inconclusive results are not listed.
Listing: T/C of selected compounds

COMPOUND	T/C
Cc1cc(C)nc(Nc2nnc(Nc3cc(C)cc(C)n3)c3ccccc23)c1	93 % of control
O=C(Nc1ccc(Sc2ccc(N=Nc3c(O)c(S(=O)(=O)O)cc4cc(S(=O)(=O)O)ccc34)cc2)cc1)c1ccc(N=Nc2c(O)c(S(=O)(=O)O)cc3cc(S(=O)(=O)O)ccc23)cc1	104 % of control
CCCN1CCc2c([nH]c3cc(OC)ccc23)C1C (stereo not given)	108 % of control
COc1cc(C(=O)Nc2ccc(S(=O)(=O)Nc3nc(C)cc(C)n3)cc2)cc(OC)c1OC	88 % of control

# query: T/C of entry CCCn1cc2c3c(cccc31)[C@H]1C[C@@H](C)CN(C)[C@@H]1C2 104 % of control

Do the same for NC(=O)N=Nc1ccc(Cl)c(Cl)c1 please 102 % of control

Do the same for O=C1NC(=O)C2CC3C(CC12)C1C(=O)NC(=O)C31 (stereo not given) please 101 % of control
